self-cleavage values by entry
B1: Osa-1-4 twister ribozyme (parent)
chain: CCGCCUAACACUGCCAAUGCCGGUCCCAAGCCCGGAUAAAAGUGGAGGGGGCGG

variants of: B1; assay: self-cleavage, relative activity (ratio to wild type); higher = more cleavage; co-transcriptional
# print the numeric value only

Use the examples below as a reference point.
Variant identifier	self-cleavage
A38U C31A	0.03
C15U G51C	0.04
G45C U18C	0.1
A38C C14U	0.4
A41U G19C	0.24
A46U G50U	0.09

In: Using the record for C21A G54A , report its self-cleavage.
Out: 0.29

In: Now try A38U C33A .
Out: 0.1

In: Now try C20A G53C .
Out: 0.1

In: Now try C52G G42U .
Out: 0.14
